# assay.target: TrkA (Homo sapiens, UniProt P04629)
# Construct: aa 441-796; His; purchased Invitrogen PV3144
# Sequence (P04629 441-796): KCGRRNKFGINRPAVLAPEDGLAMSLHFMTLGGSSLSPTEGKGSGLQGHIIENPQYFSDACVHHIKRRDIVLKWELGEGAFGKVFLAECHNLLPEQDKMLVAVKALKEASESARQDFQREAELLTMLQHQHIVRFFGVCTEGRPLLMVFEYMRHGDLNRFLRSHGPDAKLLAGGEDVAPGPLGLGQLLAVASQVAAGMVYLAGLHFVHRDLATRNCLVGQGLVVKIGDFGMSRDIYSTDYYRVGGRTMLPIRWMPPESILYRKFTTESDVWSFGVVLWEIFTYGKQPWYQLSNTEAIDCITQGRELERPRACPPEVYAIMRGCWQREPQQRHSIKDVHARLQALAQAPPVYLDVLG
# assay.explanation: Isolated TRK enzyme assay (HTRF KinEASE-TK kit), PV3144 TrkA enzyme assay
# Format: biochemical
# experimental.parameters: PV3144 TrkA enzyme assay, recombinant His-tagged cytoplasmic domain aa 441-796, 4 nM enzyme, 40 uM ATP; arithmetic mean where more than one reading; read-out: Trka enzyme (IC50)
// returns criterion not met unless IC50 is strictly below 20 nM, in which case criterion met

input: Lab log: compare recorded IC50 with 20 nM; is it strictly lower for O=C(Cc1ccc(OC(F)(F)F)cc1)Nc1ccnc(C(=O)c2cn(C(CO)CO)c3ncncc23)c1 [Example 98] ?
output: criterion not met

input: For CC(C)(CO)n1cc(C(=O)c2ccc(C#N)c(NC(=O)Cn3ccc(C(F)(F)F)n3)c2)c2cnc(N)nc21 [Example 11] then?
output: criterion met

input: For Cc1cc(C(F)(F)F)nn1CC(=O)Nc1cc(C(=O)c2cn(C(C)C)c3ncncc23)ccn1 [Example 147] then?
output: criterion met

input: For CC(C)n1cc(C(=O)c2ccnc(NC(=O)Cc3ccc(C#N)cn3)c2)c2cncnc21 [Example 62] then?
output: criterion not met

input: For CC(C)n1cc(C(=O)c2ccnc(NC(=O)Cc3ccc(Cl)cn3)c2)c2cncnc21 [Example 74] then?
output: criterion not met

input: For Cc1cc(C(F)(F)F)nn1CC(=O)Nc1cc(C(=O)c2cn(C(C)(C)CO)c3nc(N)ncc23)ccc1C#N [Example 10] then?
output: criterion met

input: For Cc1cc(C(F)(F)F)nn1CC(=O)Nc1ccnc(C(=O)c2cn(C(C)(CO)CO)c3ncncc23)c1 [Example 108] then?
output: criterion not met

input: For C[C@H](CO)n1cc(C(=O)c2cc(NC(=O)Cc3ccc(Cl)cc3)ccn2)c2cncnc21 [Example 28] then?
output: criterion not met

input: For CC(C)(C)n1cc(C(=O)c2cc(NC(=O)Cc3ccc(F)cc3)ccn2)c2cncnc21 [Example 43] then?
output: criterion met

input: For CC(C)n1cc(C(=O)c2cc(NC(=O)Cc3ccc(C#N)cn3)ccn2)c2cnc(N)nc21 [Example 63] then?
output: criterion not met

input: For COc1cc(C(=O)c2cn(C(C)C)c3ncncc23)cc(NC(=O)Cc2ccc(C#N)cc2)n1 [Example 165] then?
output: criterion not met

input: For CC(C)n1cc(C(=O)c2ccnc(NC(=O)Cc3ccc(Cl)cc3)c2)c2cncnc21 [Example 150] then?
output: criterion not met

input: For C[C@H](CO)n1cc(C(=O)c2cc(NC(=O)Cc3ccc(Cl)cn3)ccn2)c2cncnc21 [Example 25] then?
output: criterion not met

input: For CC(C)(CO)n1cc(C(=O)c2ccnc(NC(=O)Cc3ccc(C#N)cc3)c2)c2cncnc21 [Example 111] then?
output: criterion not met

input: For CC(C)(C)n1cc(C(=O)c2cc(NC(=O)Cn3ccc(C(F)(F)F)n3)ccn2)c2cncnc21 [Example 41] then?
output: criterion met

input: For CC(C)n1cc(C(=O)c2ccnc(NC(=O)Cc3cccc(S(C)(=O)=O)c3)c2)c2cncnc21 [Example 123] then?
output: criterion not met

====

# assay.target: TrkA (Homo sapiens, UniProt P04629)
# Construct: aa 441-796; His; purchased Invitrogen PV3144
# assay.explanation: Isolated TRK enzyme assay (HTRF KinEASE-TK kit), PV3144 TrkA enzyme assay
# Assay type: biochemical
# experimental.parameters: PV3144 TrkA enzyme assay, recombinant His-tagged cytoplasmic domain aa 441-796, 4 nM enzyme, 40 uM ATP; arithmetic mean where more than one reading; read-out: Trka enzyme (IC50)
Please go through the items and note down their pIC50.
# reply with the number alone; pIC50 is -log10 of concentration in mol/L

input: # lookup: pIC50 of O=C(Cc1ccc(Cl)cc1)Nc1cc(C(=O)c2cn([C@H]3CC[C@@H](O)CC3)c3ncncc23)ccn1
output: 7.67

input: For C[C@@H](CO)n1cc(C(=O)c2cc(NC(=O)Cc3ccc(F)cn3)ccn2)c2cncnc21 then?
output: 6.69

input: For O=C(Cc1ccc(F)cc1)Nc1cc(C(=O)c2cn(CCO)c3ncncc23)ccn1 then?
output: 6.32

input: For CC(C)n1cc(C(=O)c2cc(NC(=O)Cc3ccc(C#N)cn3)ccn2)c2cncnc21 then?
output: 7.27

input: For O=C(Cc1ccc(C(F)(F)F)c(F)c1)Nc1ccnc(C(=O)c2cn(C(CO)CO)c3ncncc23)c1 then?
output: 6.04

input: For Cc1cc(C)n(CC(=O)Nc2cc(C(=O)c3cn(CCO)c4ncncc34)ccn2)n1 then?
output: 6.12

input: For O=C(Cn1cc(C(F)(F)F)nn1)Nc1cc(C(=O)c2cn(CCO)c3ncncc23)ccn1 then?
output: 6.73

input: For CC(C)(CO)n1cc(C(=O)c2cc(NC(=O)Cc3ccc(Cl)cc3)ccn2)c2cnc(N)nc21 then?
output: 8.14

input: For COc1ccc(CC(=O)Nc2cc(C(=O)c3cn(C(C)C)c4ncncc34)ccn2)cc1 then?
output: 7.22

input: For CC(C)n1cc(C(=O)c2ccnc(NC(=O)Cc3ccc(C#N)cc3)c2)c2cnc(N)nc21 then?
output: 7.44

input: For O=C(Cc1ccc(Cl)cc1)Nc1cc(C(=O)c2cn([C@H]3CC[C@H](O)CC3)c3ncncc23)ccn1 then?
output: 7.64

input: For CC(C)(CO)n1cc(C(=O)c2cc(NC(=O)Cc3ccc(Cl)cn3)ccn2)c2cnc(N)nc21 then?
output: 7.14

input: For CC(C)n1cc(C(=O)c2ccnc(NC(=O)Cc3ccccc3)c2)c2cncnc21 then?
output: 6.77

input: For O=C(Cc1ccc(C(F)(F)F)cc1)Nc1ccnc(C(=O)c2cn(C(CO)CO)c3ncncc23)c1 then?
output: 6.79

input: For N#Cc1ccc(CC(=O)Nc2cc(C(=O)c3cn([C@H]4CC[C@@H](O)CC4)c4ncncc34)ccn2)cc1 then?
output: 7.12

input: For CC(C)n1cc(C(=O)c2ccnc(NC(=O)Cc3ccc(C(F)(F)F)c(F)c3)c2)c2cncnc21 then?
output: 7.82

====

# assay.target: TrkA (Homo sapiens, UniProt P04629)
# Construct: aa 441-796; His; purchased Invitrogen PV3144
# assay.explanation: Isolated TRK enzyme assay (HTRF KinEASE-TK kit), PV3144 TrkA enzyme assay
# Type: biochemical
# experimental.parameters: PV3144 TrkA enzyme assay, recombinant His-tagged cytoplasmic domain aa 441-796, 4 nM enzyme, 40 uM ATP; arithmetic mean where more than one reading; read-out: Trka enzyme (IC50)
pIC50: −log10 of the molar value.
Respond with t for pIC50 values of 7 and above, f for values below.

input: Determine whether measured pIC50 meets or exceeds 7 for CC(CO)(CO)n1cc(C(=O)c2cc(NC(=O)Cc3ccc(Cl)cn3)ccn2)c2cncnc21
output: f

input: For Cc1cc(C(F)(F)F)nn1CC(=O)Nc1cc(C(=O)c2cn(CCO)c3ncncc23)ccn1 then?
output: t

input: For CC(C)(C)n1cc(C(=O)c2cc(NC(=O)Cc3ccc(F)cn3)ccn2)c2cncnc21 then?
output: t

input: For O=C(Cc1cccc(OC(F)(F)F)c1)Nc1cc(C(=O)c2cn(CCO)c3ncncc23)ccn1 then?
output: t

input: For O=C(Cc1ccccc1OC(F)(F)F)Nc1cc(C(=O)c2cn(CCO)c3ncncc23)ccn1 then?
output: f

input: For CC(C)(CO)n1cc(C(=O)c2ccc(C#N)c(NC(=O)Cc3ccc(Cl)cc3)c2)c2cnc(N)nc21 then?
output: t

input: For CC(C)(C)n1cc(C(=O)c2cc(NC(=O)Cn3ccc(C4CC4)n3)ccn2)c2cncnc21 then?
output: t

input: For CC(C)(CO)n1cc(C(=O)c2ccc(C#N)c(NC(=O)Cc3ccc(C(F)(F)F)cc3)c2)c2cnc(N)nc21 then?
output: t

input: For Cc1cc(C(C)C)nn1CC(=O)Nc1cc(C(=O)c2cn(C(C)C)c3ncncc23)ccn1 then?
output: t

input: For O=C(Cc1ccc(Cl)c(Cl)c1)Nc1cc(C(=O)c2cn(CCO)c3ncncc23)ccn1 then?
output: t

input: For CC(C)(C)n1cc(C(=O)c2cc(NC(=O)Cc3ccc(Cl)cn3)ccn2)c2cncnc21 then?
output: t

input: For CC(C)n1cc(C(=O)c2cc(NC(=O)Cc3ccc(Cl)cc3)ncn2)c2cncnc21 then?
output: t

input: For Cc1cn(CC(=O)Nc2cc(C(=O)c3cn(CCO)c4ncncc34)ccn2)nn1 then?
output: f

input: For O=C(Cc1ccc(Cl)cc1)Nc1ccnc(C(=O)c2cn(C(CO)CO)c3ncncc23)c1 then?
output: f

input: For CC(C)n1cc(C(=O)c2ccnc(NC(=O)Cc3ccccc3Cl)c2)c2cncnc21 then?
output: t

input: For CC(C)n1cc(C(=O)c2ccnc(NC(=O)Cc3ccc(F)cc3F)c2)c2cncnc21 then?
output: t

input: For CC(C)n1cc(C(=O)c2cc(NC(=O)Cc3ccc(Cl)cc3)ccn2)c2cnc(N)nc21 then?
output: t

input: For COCc1cn(CC(=O)Nc2cc(C(=O)c3cn(C(C)C)c4ncncc34)ccn2)nn1 then?
output: f

input: For CC(C)n1cc(C(=O)c2cc(NC(=O)Cc3ccc(Cl)cc3)ccn2)c2cncnc21 then?
output: t

input: For O=C(Cc1cccc(OC(F)(F)F)c1)Nc1ccnc(C(=O)c2cn(C(CO)CO)c3ncncc23)c1 then?
output: f

input: For CC1(n2cc(C(=O)c3cc(NC(=O)Cc4ccc(C#N)cc4)ccn3)c3cncnc32)COC1 then?
output: f

input: For CC1(n2cc(C(=O)c3cc(NC(=O)Cn4cc(C(F)(F)F)nn4)ccn3)c3cncnc32)COC1 then?
output: f

input: For N#Cc1ccc(CC(=O)Nc2cc(C(=O)c3cn(C(CO)CO)c4ncncc34)ccn2)cc1 then?
output: f

input: For Cc1cc(C(F)(F)F)nn1CC(=O)Nc1ccnc(C(=O)c2cn(C(C)(C)CO)c3ncncc23)c1 then?
output: t

input: For CC(C)n1cc(C(=O)c2cc(NC(=O)Cn3cc(C4CC4)nn3)ccn2)c2cnc(N)nc21 then?
output: t

input: For N#Cc1ccc(CC(=O)Nc2cc(C(=O)c3cn(CCO)c4ncncc34)ccn2)cc1 then?
output: f
